Tested on: MDA-N
test.method.notes: NCI tumour cell line growth inhibition, 48 h
Activity calls are given as the source filed them. Rule as the data show it: active = GI50 up to about 1.1 µM and inactive = higher.
property.measured: GI50

>>> result("CCOC(=O)NC(Nc1ccc(C)cc1)(C(F)(F)F)C(F)(F)F")
"> 100 µM (inactive)"
>>> result("O=C(CC(O)(C(F)(F)Cl)C(F)(F)Cl)CC(O)(C(F)(F)Cl)C(F)(F)Cl")
"3.49 µM (inactive)"
>>> result("N=C(N)NCCNC(=N)N")
"> 100 µM (inactive)"
>>> result("CC(=O)OCCOCn1cc(C=O)c2ccccc21")
"> 100 µM (inactive)"
>>> result("Cc1cc2sc(C)[n+](CCCOS(=O)(=O)[O-])c2cc1C")
"> 100 µM (inactive)"
>>> result("C=C(C)[C@H]1C=C[C@@H](OC(=O)c2cccnc2)[C@@]23CO[C@@](C)([C@H](OC(=O)c4cccnc4)[C@@]4(OC(C)=O)C[C@H](C)[C@H](OCCC)[C@@H]4[C@H]2OC(C)=O)[C@H]13")
"10.7 µM (inactive)"
>>> result("N=C(N)NC(=N)Nc1ccc(S(=O)(=O)O)cc1")
"> 100 µM (inactive)"
>>> result("O=c1cc(/C=C/c2ccc(O)c(O)c2)oc(/C=C/c2ccc(O)c(O)c2)c1")
"2.24 µM (inactive)"
>>> result("CN1CCN(/C(N)=C(\\C#N)C(=O)Nc2ccc(Cl)cc2)CC1")
"52.4 µM (inactive)"
>>> result("O=S(=O)(O)c1ccc(/N=N/c2ccc(/N=N/c3c(O)ccc4ccc(S(=O)(=O)O)cc34)cc2)cc1")
"> 100 µM (inactive)"

###

Tested on: SW-620
test.method.notes: NCI tumour cell line growth inhibition, 48 h
Active and inactive are the calls of the source. Cut-off read from the data, not from the text of the source: active = GI50 up to about 1.1 µM and inactive = higher.
Labels: active, inactive

>>> classification("CC(C)c1cccc(C(C)C)c1NC(=O)/C(CC(=O)CC(c1ccccc1)c1c(O)c2ccccc2oc1=O)=N/O (stereo unspecified)")
"inactive"
>>> classification("Cn1cnc(C(N)=[Se])c1N")
"inactive"
>>> classification("COc1cc(C(=O)OCCn2[nH]c(-c3ccc(Cl)cc3)nc2=S)cc(OC)c1OC")
"inactive"
>>> classification("C/C(=C\\CC[C@]1(C)OC(C)(C)OC1CC/C(C)=C/CO[Si](c1ccccc1)(c1ccccc1)C(C)(C)C)CC/C=C/CO[Si](C)(C)C(C)(C)C (stereo partly specified)")
"inactive"
>>> classification("O=[N+]([O-])c1ccc2nc3n(c2c1)C(c1c(F)cccc1F)SC3 (stereo unspecified)")
"inactive"
>>> classification("COC(=O)CCC(NC(=O)OC(C)(C)C)C(=O)NC(Cc1ccc(NC(=O)CCCC(C)=O)cc1)C(=O)NC(CCC(=O)OC)C(=O)OC (stereo unspecified)")
"inactive"
>>> classification("N#C/C(=C1\\OC(=O)C(c2ccc(Br)cc2)=C1O)c1ccc(Br)cc1")
"inactive"
>>> classification("Cc1ccc(-c2ccc3c(c2)Sc2ccccc2O3)n1C")
"active"
>>> classification("Cc1cc(=O)oc2c(CN(CCCl)CCCl)c(O)ccc12")
"inactive"
>>> classification("COc1cccc2c(=O)c3c(O)c4cc(N(C)C)ccc4c(OC(C)=O)c3oc12")
"inactive"
>>> classification("CN(C)CCNc1ccc2ncn3c4ccc(O)cc4c(=O)c1c23")
"active"

###

System: HL-60
test.method.notes: NCI tumour cell line growth inhibition, 48 h
Calls of active or inactive are those of the source. Rule as the data show it: active = GI50 up to about 1.1 µM and inactive = higher.
Labels: Yes = active, No = inactive

>>> classification("Cc1ccc(N2C3=C(CC4=C2CC(C)(C)CC4=O)C(=O)CC(C)(C)C3)cc1")
"No"
>>> classification("Cn1c(N2CCCC2)c(C=O)c(=O)n(C)c1=O")
"No"
>>> classification("CC(=O)OCCOCn1cc(C=O)c2ccccc21")
"No"
>>> classification("O=C1/C(=N\\O)C2CCC1C2 (configuration not stated)")
"No"
>>> classification("CC(C)OCN1COCN/C1=N/C#N")
"No"
>>> classification("CC1=C(SCCO)C(=O)c2ccccc2C1=O")
"Yes"
>>> classification("O=C(O)C#Cc1ccc([N+](=O)[O-])cc1")
"No"
>>> classification("CCN(CC)Cc1c(/C=C\\c2cc(OC)c(OC)c(OC)c2)ccc(OC)c1O")
"No"
>>> classification("O=S(=O)(c1cc(Cl)ccc1Cl)N1CCN(c2ccc(Cl)c(Cl)c2)CC1")
"No"
>>> classification("O=C(CSc1nc2ccccc2c(=O)n1-c1ccccc1)N/N=C1\\C(=O)Nc2ccc(Br)cc21")
"No"
>>> classification("CC(C)=NN/C(=N\\c1ccc(Cl)cc1)NS(=O)(=O)c1ccc(C)cc1")
"No"
>>> classification("CN(C)CCn1c(=O)c2ccc(NCCNCCO)c3c(=O)c4ccccc4n(c1=O)c23")
"Yes"
>>> classification("Cc1nn2c(C(=O)N/N=C/c3ccccc3O)c(C)nc2s1")
"No"
>>> classification("N#C/C(=C1\\OC(=O)C(c2ccc(Br)cc2)=C1O)c1ccc(Br)cc1")
"No"
>>> classification("N#Cc1nc(-c2ccccn2)oc1N")
"No"
>>> classification("CC(=O)OC/C=C(\\C)CCC(Br)C(C)(C)Br (configuration not stated)")
"No"
>>> classification("CN(C)CCNc1ccc2ncn3c4ccc(O)cc4c(=O)c1c23")
"Yes"

###

Tested on: Hs-578T
test.method.notes: NCI tumour cell line growth inhibition, 48 h
Active and inactive are the calls of the source. No stated cut-off is given here; in the data, active = GI50 up to about 1.1 µM and inactive = higher.
property.measured: GI50

>>> result("O=C1C(Br)=C(c2ccccc2)C(c2ccccc2)=C1c1ccccc1")
"13.7 µM (inactive)"
>>> result("COC(=O)C1C(C(=O)OC)C2(OC(c3ccc(Cl)cc3)=CC2=O)C12OC(c1ccc(Cl)cc1)=CC2=O (centres undefined)")
"30.5 µM (inactive)"
>>> result("NC(=O)c1cc2ccccc2o/c1=N/c1ccccc1")
"> 100 µM (inactive)"
>>> result("CCOC(=O)Cn1sc2ncc([N+](=O)[O-])cc2c1=O")
"41 µM (inactive)"

###

System: DLD-1
test.method.notes: NCI tumour cell line growth inhibition, 48 h
Calls of active or inactive are those of the source. Rule as the data show it: active = GI50 up to about 1.1 µM and inactive = higher.
Labels: active, inactive

>>> classification("O=c1oc2ccccc2n1P(=O)(Oc1ccc(Cl)cc1)n1c(=O)oc2ccccc21")
"inactive"
>>> classification("O=C1NN=CN2C(=O)CCC12 (configuration not stated)")
"inactive"
>>> classification("CCOC(=O)Cn1c(=O)[nH]c(=O)c2[nH]cnc21")
"inactive"
>>> classification("CCCCCCCCCC1CC(=O)OC2=C1C(=O)CCC2 (configuration not stated)")
"inactive"
>>> classification("O=C1[C@H]2ON(c3ccccc3)C(c3ccco3)[C@H]2C(=O)N1c1ccc(Cc2ccc(N3C(=O)[C@@H]4ON(c5ccccc5)C(c5ccco5)[C@@H]4C3=O)cc2)cc1 (some centres not stated)")
"inactive"
>>> classification("CCN1/C(=C/C(C)=C/c2sc3ccccc3[n+]2CC)Sc2ccccc21")
"active"
>>> classification("CCOc1ccc(/C=N\\N2C(=O)c3ccccc3C2=O)cc1")
"inactive"
>>> classification("FC(F)(F)P1C2C=CC(CC2)C1(F)F (configuration not stated)")
"inactive"
>>> classification("O=Cc1ccc2c(c1I)OCO2")
"inactive"
>>> classification("CC1=CC(=O)C(=O)C2=C1OC1(C2)C(C)CCC2C3(C)CCC(O)C(C)(C)C3CCC21C (configuration not stated)")
"inactive"
>>> classification("CCCCCCCCCCCCCCCc1nnc(S)[nH]1")
"inactive"
>>> classification("C/C(=C\\CC[C@]1(C)OC(C)(C)OC1CC/C(C)=C/CO[Si](c1ccccc1)(c1ccccc1)C(C)(C)C)CC/C=C/CO[Si](C)(C)C(C)(C)C (some centres not stated)")
"inactive"

###

Test system: SN12C
test.method.notes: NCI tumour cell line growth inhibition, 48 h
Activity calls are given as the source filed them. Rule as the data show it: active = GI50 up to about 1.1 µM and inactive = higher.
property.measured: GI50

>>> result("COc1cccc(C2c3cc4c(cc3OC(N3CCCC3)C2C)OCO4)c1O (stereo not given)")
"4.84 µM (inactive)"
>>> result("O=C(Nc1nnc(S)[nH]1)C(=O)C(C(=O)c1ccc2ccccc2c1)C1OC(=O)c2ccccc21 (stereo not given)")
"18.2 µM (inactive)"
>>> result("O=C(O)C#Cc1ccc([N+](=O)[O-])cc1")
"> 100 µM (inactive)"
>>> result("O=C(c1ccccc1)c1ccc2cccc(O)c2n1")
"38.8 µM (inactive)"
>>> result("O[C@H]1[C@H](O)[C@@H](O)[C@H](O)[C@@H](O)[C@H]1O [INOSITOL]")
"> 1000 µM (inactive)"
>>> result("O=C1[C@H]2ON(c3ccccc3)C(c3ccco3)[C@H]2C(=O)N1c1ccc(Cc2ccc(N3C(=O)[C@@H]4ON(c5ccccc5)C(c5ccco5)[C@@H]4C3=O)cc2)cc1 (stereo not given in full)")
"> 100 µM (inactive)"
>>> result("COc1ccc(C(SC2C(O)C(CO)OC2n2ccc(=O)[nH]c2=O)(c2ccccc2)c2ccc(OC)cc2)cc1 (stereo not given)")
"14.4 µM (inactive)"
>>> result("Cn1cnc(C(N)=[Se])c1N")
"2.29 µM (inactive)"
>>> result("C/C(=C\\CC[C@]1(C)OC(C)(C)OC1CC/C(C)=C/CO[Si](c1ccccc1)(c1ccccc1)C(C)(C)C)CC/C=C/CO[Si](C)(C)C(C)(C)C (stereo not given in full)")
"> 100 µM (inactive)"
>>> result("Cc1ccc(S(=O)(=O)NC(=O)NNc2ccc(F)cc2)cc1")
"> 100 µM (inactive)"
